assay: Cytotoxicity against African green monkey Vero cells assessed as reduction in cell viability after 24 hrs by resazurin staining based analysis; assay type: toxicity; conditions: chlorocebus sabaeus
Record form. Attribute: CC50 at 24 h. Fill in for each entry.

Which CC50 at 24 h value belongs to `OC[C@H]1O[C@@H](n2cnc3c(NCc4ccc(-c5cccc(C(F)(F)F)c5)cc4)ncnc32)[C@H](O)[C@@H]1O` ? > 50 µM

Param item = `OC[C@H]1O[C@@H](n2cnc3c(NCc4ccc(-c5ccccc5C(F)(F)F)cc4)ncnc32)[C@H](O)[C@@H]1O` ; retrieve measured CC50 at 24 h. > 50 µM

What CC50 at 24 h value was documented for this compound, `OC[C@H]1O[C@@H](n2cnc3c(NCc4ccc(-c5ccccc5)cc4)ncnc32)[C@H](O)[C@@H]1O` ? > 50 µM
